Tested on: PRMT1 (protein arginine N-methyltransferase 1)
PROTOCOL_NOTES: small molecules binding arginine methyltransferase PRMT1 – biochemical, small-molecule microarray, 635 nm fluorescence, primary screen (AID 1088);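 further: binding of Prmt1 protein to compounds spotted on small-molecule microarray slides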
TEST_CONDITIONS: higher = more signal
MEASUREMENT_TYPE: composite z-score
Answer as a number with no unit attached.

# get_value(readout= composite z-score, system= PRMT1 (protein arginine N-methyltransferase 1)) for CC(C)C[C@@H]1NC(=O)[C@@]23C(=O)N[C@@H](Cc4ccccc4)C2[C@H](C)[C@@]2(C)O[C@H]2C3/C=C/C/C=C\CNC(=O)[C@@H]2CCCN2C1=O (some centres undefined)
-0.653
